# applied.conditions: 303.15 K; 101.3 kPa; Liquid
// returns no (0) unless viscosity is strictly below 2 mPa·s, in which case yes (1)

The following compounds have reported results that may help.
>>> class_assignment("CCO")
"yes (1)"
>>> class_assignment("CCCCO")
"no (0)"
>>> class_assignment("CCC(C)O (stereo not drawn)")
"no (0)"

Please determine if `CC(C)O` is below 2 mPa·s in terms of viscosity.
yes (1)

Please determine if `CCCCCO` is below 2 mPa·s in terms of viscosity.
no (0)

Please determine if `CCCO` is below 2 mPa·s in terms of viscosity.
yes (1)

Please determine if `CO` is below 2 mPa·s in terms of viscosity.
yes (1)

Please determine if CCOC(=O)OCC [diethyl carbonate] is below 2 mPa·s in terms of viscosity.
yes (1)

###

# applied.conditions: 298.15 K; 101.3 kPa; Liquid
metric.name: viscosity (mPa·s)
State just the number; it will be interpreted in mPa·s.

>>> experimental_value("CO [methanol]")
0.553
>>> experimental_value("CCO [ethanol]")
1.105
>>> experimental_value("CCC(C)O (stereo not drawn) [butan-2-ol]")
3.115
>>> experimental_value("CCCCCO [pentan-1-ol]")
3.347
>>> experimental_value("CCCCO [butan-1-ol]")
2.62
>>> experimental_value("CCCO [propan-1-ol]")
1.97
>>> experimental_value("CCOC(=O)OCC [diethyl carbonate]")
0.749

Suppose we examine the molecule CC(C)O [propan-2-ol] ; what viscosity value has been reported?
2.098

###

Listed below: viscosity values for each entry.
# applied.conditions: 313.15 K; 101.3 kPa; Liquid
± gives the expanded uncertainty stated by the source.
Hi, when you answer, please include the unit after the number. Thanks!

>>> experimental_value("CC(C)O")
"1.325 ± 0.042 mPa·s"
>>> experimental_value("CCCCO")
"1.754 ± 0.056 mPa·s"
>>> experimental_value("CCO")
"0.826 ± 0.026 mPa·s"
>>> experimental_value("CCC(C)O (stereo not drawn)")
"1.784 ± 0.11 mPa·s"
>>> experimental_value("CCOC(=O)OCC [diethyl carbonate]")
"0.623 ± 0.02 mPa·s"
>>> experimental_value("CCCO")
"1.361 ± 0.043 mPa·s"

Suppose we examine the compound `CO` ; what viscosity value has been reported?
0.45 ± 0.014 mPa·s

Suppose we examine the compound `CCCCCO` ; what viscosity value has been reported?
2.256 ± 0.072 mPa·s
